Known folding stability dG of a selection of variants
B1: 6NMW (parent)
chain: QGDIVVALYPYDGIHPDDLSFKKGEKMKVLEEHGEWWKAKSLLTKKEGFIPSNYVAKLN

Variants of: B1
Assay: folding stability dG (cDNA display proteolysis); higher = more stable
Conditions: PBS, room temperature
Reply with just the number (in kcal/mol).

Please review the entries below; each comes with its answer.
* A7I | -0.263
* L43A | 3.2
* K57S | 2.94
* S52D | 1.16
* S41R | 0.201

Entry L43R ; folding stability dG = 3.66

Entry D18L ; folding stability dG = 2.84

Entry S41H ; folding stability dG = 2.95

Entry E31Y ; folding stability dG = 3.07

Entry F21C ; folding stability dG = 0.758

Entry M27Q ; folding stability dG = -0.878

Entry K38P ; folding stability dG = 0.337

Entry K38V ; folding stability dG = 3.34
